Kindly supply the reported pIC50 values for the records listed here.
// pIC50 here means minus log10 of the molar concentration (mol/L)

Asked: State recorded pIC50 with NRAS (Homo sapiens, UniProt P01111), entry `C#Cc1c(F)ccc2cc(O)cc(-c3nccc4c5c(N6CCOC[C@@](C)(O)C6)nc(OC[C@@]67CCCN6C[C@H](F)C7)nc5n(C)c34)c12` , no comment.
Sequence (P01111 with tags, fused parts or gaps): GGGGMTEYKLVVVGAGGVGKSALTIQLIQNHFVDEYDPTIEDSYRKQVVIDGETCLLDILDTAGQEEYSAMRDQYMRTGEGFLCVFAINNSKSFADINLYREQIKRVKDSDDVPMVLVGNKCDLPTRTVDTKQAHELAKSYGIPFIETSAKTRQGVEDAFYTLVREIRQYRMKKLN
Given back: 5.05

Asked: State the measured pIC50 (NRAS (Homo sapiens, UniProt P01111)) of `CN(C)C[C@@]1(COc2nc(N3CCOC[C@@](C)(O)C3)c3c(n2)sc2c(-c4c(C5CC5)c(Cl)cc5[nH]ncc45)nccc23)CC1(F)F`
Given back: 5.29

###

# Test Target: KRAS G12V (amino acids 1-169) (Homo sapiens, UniProt P01116, G12V)
# Sequence (P01116 with tags, fused parts or gaps isoform P01116-2 G12V): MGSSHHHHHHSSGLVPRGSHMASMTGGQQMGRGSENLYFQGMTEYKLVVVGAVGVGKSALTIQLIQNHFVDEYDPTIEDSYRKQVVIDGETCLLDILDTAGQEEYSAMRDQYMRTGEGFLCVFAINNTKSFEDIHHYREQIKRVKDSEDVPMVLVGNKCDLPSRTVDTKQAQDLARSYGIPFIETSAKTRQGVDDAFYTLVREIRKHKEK
# Method Description: SOS-catalyzed nucleotide exchange assay (Procedure B, BODIPY FL GDP displacement), KRAS G12V
# Reported Conditions: read-out: KRAS G12V GNE IC50
Task for the reader: assign each of the following compounds its reported pIC50.
Note on pIC50: it is the negative log10 of concentration, concentration in mol/L.

Asked: Indicate its recorded pIC50; the compound in question is CC1(F)c2c(cc3[nH]ncc3c2-c2nccc3c2sc2nc(OC[C@@]45CCCN4C[C@H](F)C5)nc(N4CCOC[C@@](C)(O)C4)c23)CC1(F)F (single isomer, unassigned)
Given back: 7.18

Asked: Look up and report measured pIC50 for this entry: `C[C@@]1(O)COCCN(c2nc(OC[C@@]34CCCN3C[C@H](F)C4)nc3sc4c(-c5c6c(cc7[nH]ncc57)CCC6=O)nccc4c23)C1`
Given back: 6.61

Asked: Using known records, supply pIC50 for CC1c2c(cc3[nH]ncc3c2-c2nccc3c2sc2nc(OC[C@@]45CCCN4C[C@H](F)C5)nc(N4CCOC[C@@](C)(O)C4)c23)C(C)(C)C1(F)F (some centres unmarked)
Given back: 6.29

Asked: Supply pIC50 value. Item: `CC(=O)N1CC(Nc2nc(OC[C@@]34CCCN3C[C@H](F)C4)nc3sc4c(-c5c(C(F)(F)F)c(C)cc6[nH]ncc56)nccc4c23)C1`
Given back: 6.31

Asked: Tell me measured pIC50 for CC1Cc2cc3[nH]ncc3c(-c3nccc4c3sc3nc(OC[C@@]56CCCN5C[C@H](F)C6)nc(N5CCOC[C@@](C)(O)C5)c34)c2C1 (some centres unmarked) please.
Given back: 6.91

Asked: Tell me pIC50 reported for `Cc1cc2[nH]ncc2c(-c2nccc3c2sc2nc(OC[C@@]45CCCN4C[C@H](F)C5)nc(N4C[C@H](O)C[C@H]4C)c23)c1C(F)(F)F`
Given back: 5.33

Asked: State its pIC50 for this compound: C[C@@]1(O)COCCN(c2nc(OC[C@@]34CCCN3C[C@H](F)C4)nc3sc4c(-c5c6c(cc7[nH]ncc57)CCC6C#N)nccc4c23)C1 (some centres unmarked)
Given back: 6.98

Asked: Give the value of pIC50 reported for the following: C[C@@]1(O)COCCN(c2nc(OC[C@@]34CCCN3C[C@H](F)C4)nc3sc4c(-c5c6c(cc7[nH]ncc57)CCC6C5CC5)nccc4c23)C1 (some centres unmarked)
Given back: 7.22

Asked: Output pIC50 of `Cc1cc2[nH]nc(I)c2c(-c2nccc3c2sc2nc(OC[C@@]45CCCN4C[C@H](F)C5)nc(N4CCOC[C@@](C)(O)C4)c23)c1C(F)(F)F`
Given back: 5.63

Asked: Return reported pIC50. Input compound: `C#Cc1n[nH]c2cc(C)c(C(F)(F)F)c(-c3nccc4c3sc3nc(OC[C@@]56CCCN5C[C@H](F)C6)nc(N5CCOC[C@@](C)(O)C5)c34)c12`
Given back: 5.93

Asked: State, in one line, measured pIC50 of COCC1CCc2cc3[nH]ncc3c(-c3nccc4c3sc3nc(OC[C@@]56CCCN5C[C@H](F)C6)nc(N5CCOC[C@@](C)(O)C5)c34)c21 (single isomer, unassigned)
Given back: 8.14

Asked: Specify measured pIC50 for Cc1cc2[nH]ncc2c(-c2nccc3c2sc2nc(OC[C@@]45CCCN4C[C@H](F)C5)nc(N4CCOCC5(CC(=O)N5)C4)c23)c1C(F)(F)F (some centres unmarked) .
Given back: 7.21

Asked: // Input: `Cc1cc2[nH]ncc2c(-c2nccc3c2sc2nc(OC[C@@]45CCCN4C[C@H](F)C5)nc(NC45CC(C4)C5)c23)c1C(F)(F)F` . Output its pIC50 only.
Given back: 6.12

Asked: For the compound Cc1cc2[nH]ncc2c(-c2nccc3c2sc2nc(OC[C@@]45CCCN4C[C@H](F)C5)nc(N4CCOCC(C)C4)c23)c1C(F)(F)F (some centres unmarked) , give its measured pIC50 value.
Given back: 5.50

Asked: State, in one line, measured pIC50 of `C[C@@]1(O)COCCN(c2nc(OC[C@@]34CCCN3C[C@H](F)C4)nc3sc4c(-c5c6c(cc7[nH]ncc57)CCC6)nccc4c23)C1`
Given back: 7.42

Asked: Please indicate pIC50 recorded for `C#Cc1cccc2cccc(-c3nncc4c3sc3nc(OC[C@@]56CCCN5C[C@H](F)C6)nc(N5CCOC[C@@](C)(O)C5)c34)c12`
Given back: 6.00

Asked: Specify measured pIC50 for `C[C@H]1CN2C[C@H](F)C[C@@]2(COc2nc(N3CCOC[C@@](C)(O)C3)c3c(n2)sc2c(-c4c(C5CC5)c(Cl)cc5[nH]ncc45)nccc23)C1` .
Given back: 7.38
